assay: physchem; conditions: Ethoxydiglycol:water co-solvent mixture, aqueous with cosolvent or surfactant or cyclodextrin, thermodynamic from solid
measurement_kind: solubility at 16 h

# molecule, result
data = [
    ("CC(=O)O[C@H]1C(=O)[C@@]2(C)[C@H]([C@H](OC(=O)c3ccccc3)[C@]3(O)C[C@H](OC(=O)[C@H](O)[C@@H](NC(=O)c4ccccc4)c4ccccc4)C(C)=C1C3(C)C)[C@]1(OC(C)=O)CO[C@@H]1C[C@@H]2O [paclitaxel]", "< 5000 µg/mL"),
]

====

assay: physchem; details: Ethanol:water co-solvent mixture, aqueous with cosolvent or surfactant or cyclodextrin, thermodynamic from solid

# smi, solubility at 16 h
records = [
    ("CC(=O)O[C@H]1C(=O)[C@@]2(C)[C@H]([C@H](OC(=O)c3ccccc3)[C@]3(O)C[C@H](OC(=O)[C@H](O)[C@@H](NC(=O)c4ccccc4)c4ccccc4)C(C)=C1C3(C)C)[C@]1(OC(C)=O)CO[C@@H]1C[C@@H]2O", "5000 to 10000 µg/mL"),
]
